tested-target: Luciferin 4-monooxygenase (Photinus pyralis)
test-protocol: firefly luciferase enzyme inhibitors, primary screen, biochemical, luminescence, purified enzyme, 2006 set (AID 1141);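 also: cell-free assay with purified firefly luciferase at 100 ng per well in PBS; test concentration not given here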
run-parameters: SteadyGlo luminescence, 30 min, higher = more signal, called active from +8 up or from −8 down
Record form. Attribute: z-score. Fill in for each entry.
One number for each entry.

molecule	experimental-result
CCOC(=O)[C@H](Cc1ccccc1)NC(=O)CCC1CC(OC(=O)NCc2cccc3ccccc23)CC2(CCCC(COC(=O)NCCc3ccccc3OC)O2)O1 (some centres not stated)	0.821

Each molecule below has a recorded value; state its z-score.
1. O=C1C=C[C@@H](O)[C@@H]2[C@@H]3C(=O)N(c4cccc(Oc5ccccc5)c4)C(=O)[C@@H]3CC[C@@H]12
2. CC1(C)O[C@H]2O[C@H]([C@H](O)CON=C3[C@H]4CCn5c(=O)n(-c6ccccc6)c(=O)n5[C@H]4[C@H](O)[C@@H]4O[C@H]34)[C@H](O)[C@H]2O1
3. CC(CCN1CCc2nc(-c3ccccc3)c(-c3ccccc3)cc2C1)=NO[C@H](C)c1cn([C@H](CO)Cc2ccccc2)nn1
4. C[C@H]1CC[C@H]2C(=O)N[C@H](Cc3ccccc3)C(=O)N2[C@@H]1c1ccccc1
5. O=C1C2=CC[C@H]3C(=O)N(c4ccc(F)cc4F)C(=O)[C@H]3[C@H]2[C@H](O)[C@@H]2O[C@H]12
6. C#CCCCON=C1[C@H]2CCn3c(=O)n([C@@H](CC)c4ccccc4)c(=O)n3[C@H]2[C@H](O)[C@@H]2O[C@H]12

1: -0.57; 2: 0.0158; 3: -0.595; 4: -0.854; 5: -0.51; 6: -0.0508

---

test-protocol: small-molecule microarray binders of probe aWnt5a, primary screen, biochemical, biotinylated probe, 635/667 nm fluorescence (AID 1113);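 also: score merges 667 nm fluorescence intensity with signal-to-noise per printed feature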
run-parameters: higher = more signal
// false strictly below -0.06 in composite z-score; true otherwise

smiles-string	class-name
C=CC[C@@H]1C=C[C@H](ON=C2C[C@@H](O)[C@@H](O)[C@@H]3[C@@H]4C(=O)N(CC)C(=O)[C@@H]4CC[C@@H]23)[C@@H](CO)O1	false
COc1ccc2c(c1)O[C@@H](c1cccc(C(F)(F)F)c1)[C@H](O)C2=O	false
CN1CCc2nc(-c3ccccc3)c(-c3ccccc3)cc2C1	true
COc1ccc(COC(=O)NN=C2C[C@@H](O)[C@@H](O)[C@@H]3[C@@H]4C(=O)N(C(C)(C)C)C(=O)[C@@H]4CC[C@@H]23)cc1	true
CCN1C(=O)[C@H]2[C@H]3[C@H](O)[C@H](O)CC(=NO[C@@H]4O[C@H](COC(C)=O)[C@@H](OC(C)=O)[C@H](OC(C)=O)[C@H]4OC(C)=O)[C@@H]3CC[C@H]2C1=O	true

Next up:
Determine whether this compound has composite z-score no lower than -0.06: `C#CCCCON=C1C[C@@H](O)[C@@H](O)[C@@H]2[C@@H]3C(=O)N(C4CCCCC4)C(=O)[C@@H]3CC[C@@H]12` false

---

test-protocol: small-molecule microarray binders of probe aEGFR, primary screen, biochemical, biotinylated probe, 635/667 nm fluorescence (AID 1097);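 also: probe is a biotinylated anti-EGFR antibody binding compounds printed on slides; score combines fluorescence near 667 nm and signal to noise of each spot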
run-parameters: higher = more signal
property-measured: composite z-score
Numbers only.

# count of solved cases: 5
compound	composite z-score
C=C(C)C(=O)OC[C@H]1CN2[C@@H](CC[C@@H](C)[C@@H]2c2ccc(Br)cc2)C(=O)O1	-0.144
COc1ccc(OC[C@@H](CO)OC)cc1	-0.0381
CC(C)CON=C1C[C@@H](O)[C@@H](O)[C@@H]2[C@@H]3C(=O)N(Cc4ccccc4)C(=O)[C@@H]3CC[C@H]12	0.088
CC(=O)OC[C@H]1O[C@H](CC=NOC(C)CN2CCCCc3nc(C)c(C)cc32)C=C[C@@H]1OC(C)=O (stereo partly specified)	0.43
CO[C@H]1COC(=O)CCC[C@H](C)[C@H](OC)COC(=O)CC=C[C@@H]1C	0.0278

Each compound below has a recorded value; state its composite z-score.
1. C[C@H]1CC[C@H]2C(=O)O[C@H](CO)CN2[C@@H]1c1ccc(Br)cc1
2. C#CCCCON=C1C[C@@H](O)[C@@H](O)[C@@H]2[C@@H]3C(=O)N(C[C@@H]4CCCO4)C(=O)[C@@H]3CC[C@@H]12
3. Cc1ccc(S(=O)(=O)N[C@@H]2COC(=O)CC=C[C@@H](C)[C@H](NS(=O)(=O)c3ccc(C)cc3)COC(=O)[C@H](C)NC(=O)CC=C[C@H]2C)cc1
4. COc1ccc(O[C@H]2C=C[C@@H](c3ccccc3)O[C@@H]2COC(=O)CCC(C)=NOC[C@@H](O)COCc2ccco2)cc1
5. COc1ccc(O[C@H]2C=C[C@@H](c3ccccc3)O[C@@H]2CO)cc1
6. CON=C[C@@H](OC)[C@H](C)C=CCC(=O)OC
7. C[C@@H](c1ccccc1)N1C(=O)[C@H]2[C@H]3[C@H](O)[C@H](O)CC(=NOC[C@@H](O)COCc4ccco4)[C@H]3CC[C@H]2C1=O

1: -0.0738; 2: -0.0436; 3: -0.16; 4: -0.48; 5: -0.0146; 6: -0.22; 7: -0.164

Each compound below has a recorded value; state its composite z-score.
1. O=C1C=C[C@@H](O)[C@@H]2[C@@H]3C(=O)N(c4cccc(Oc5ccccc5)c4)C(=O)[C@@H]3CC[C@@H]12
2. CO[C@@H](C1CCCCC1)[C@@H](C)[C@H](OCc1cccc(Br)c1)[C@@H](C)CO

[0.0443, -0.0549]

Each compound below has a recorded value; state its composite z-score.
1. CON=C(C)CCC(=O)OC[C@H]1O[C@H](C#Cc2ccccc2)C=C[C@@H]1Oc1ccc(C)cc1
2. COC(=O)CC=C[C@@H](C)[C@@H](C=NOC(C)CN1CCCc2nc(C)c(C)cc21)NS(=O)(=O)c1ccc(C)cc1 (stereo partly specified)
3. CCOC(=O)NN=C1C[C@@H](O)[C@@H](O)[C@@H]2[C@@H]3C(=O)N(c4ccc(F)cc4F)C(=O)[C@@H]3CC[C@H]12
4. C=CC[C@@H]1C=C[C@H](ON=C[C@@H](NS(=O)(=O)c2ccc(C)cc2)[C@H](C)C=CCC(=O)OC)[C@@H](CO)O1

-0.0363
-0.0158
0.021
-0.0715
